Provenance of the data: the supplement of paper PMC9112550

- Tested on: Escherichia coli TOP10;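 note: peptides expressed intracellularly from a pBAD plasmid library in pooled LB shake-flask culture, induced with 0.3% L-arabinose, DNA abundance read by NGS, three biological replicates, DESeq2 with apeglm shrinkage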
- Assay name: shrunken log2 fold change of peptide-encoding DNA abundance (4.5 h post-induction vs induction); higher = less antimicrobial activity (less host growth inhibition)
- Condition details: time post-induction: 4.5 h; library: site-saturation at positions 5, 18, 19, 20
# key: entry, value: shrunken log2 fold change

Examples with their reported shrunken log2 fold change follow.
RRIRCRPPRLPRPRPRPISEPRP = -0.0601
RRIRTRPPRLPRPRPRPHGCPRP = 0.14
RRIRRRPPRLPRPRPRPHNGPRP = -0.172
RRIRGRPPRLPRPRPRPANNPRP = 0.138
RRIRHRPPRLPRPRPRPRKDPRP = -0.0956
RRIRQRPPRLPRPRPRPSNVPRP = -0.0428
RRIRTRPPRLPRPRPRPCTCPRP = -0.00101
RRIRYRPPRLPRPRPRPRHDPRP = -0.237
RRIRDRPPRLPRPRPRPAYKPRP = -0.456
RRIRCRPPRLPRPRPRPNGFPRP = -0.0899

# shrunken log2 fold change (sequence: "RRIRQRPPRLPRPRPRPAMCPRP" ) is 0.171

Sure, the documented shrunken log2 fold change for "RRIRIRPPRLPRPRPRPGWYPRP" is -0.221

// shrunken log2 fold change lookup, sequence = "RRIRQRPPRLPRPRPRPHAKPRP" , result: 0.12

For "RRIRDRPPRLPRPRPRPMAVPRP" the sequence record lists shrunken log2 fold change as 0.417

shrunken log2 fold change reported for this sequence "RRIRKRPPRLPRPRPRPEKIPRP" : 0.185
